B1: glmS ribozyme (parent)
chain: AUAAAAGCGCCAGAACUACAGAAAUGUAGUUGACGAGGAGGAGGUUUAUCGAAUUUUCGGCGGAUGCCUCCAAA

variants of: B1; test: self-cleavage kobs at 2500 uM GlcN6P; higher = faster cleavage; RNA array; conditions: with glucosamine-6-phosphate
Fewer inactive variants are shown than the library holds.
Class Yes: self-cleavage kobs at 2500 uM GlcN6P at least 0.0002 s⁻¹. Class No: self-cleavage kobs at 2500 uM GlcN6P below 0.0002 s⁻¹.

G9C C11A G44U G63A C67U    No
U30A G51U    No
G51C U55G    No
A12C G13U A36U    No
A14U C34A A48G C68G C71A    No
C11A A15U A64C    No
G40A A42C A48G    No
G32A C34G C71U    No
A14C U56C C67U    No
A6C G40A U46G G51U    No
C8U C11U A39C G51A G62C    No
G13C C34A C67U    No
U31G G38U A42U C67U    No
A15G G37U C61A C68A C70G    No
U47A C68U    Yes
C70G C71U    No
C11G G37U A53C    No
A42U G44A U65G    No
A6G C11G A33U G59C    No
U54G U55A C70G    No
A64G C71G    Yes
G29U U45C U46G    No
U49G C68G    No
A39U A42C A53U C58U    No
C11U A15G G29U    No
C16G G29U U54A    Yes
U47G U54G    Yes
A33G A36G A39C U45A    No
A53U G59U C61U G66U    No
A53U C68G    No
A64U C67U    No
A12G A64U C67G    No
G35C G62A    No
A52U U54C    Yes
A6U G32U U57G    No
C8G A36G A39U G43U    No
U55G U56G    Yes
A42C C61A G66U    No
G13U G51U    No
A6G A12C U55C C67U    No
C11U A15G G43A C67G    No
A14G U46A    Yes
G9U U30A G38A G40C U56A C70A    No
G41A C70U    Yes
A12C A48G C58G    No
G38U U65A C70G    No
A36C G43C C50G C68A    No
C16G U31C    Yes
A15C G37A A42G    No
G37C A39G U45A U49A    No
U30C G35C U49A    No
C8A U31C A42U U65G    No
G32C G44C    No
G60A G62U    No
C58G C70A    No
A39G G62A    No
G37A U49G A52U G59A    No
G51A U56C C70G    No
G13A A14C A42G C70U    No
G29C U65G    Yes
C19A A53C C71A    Yes
U46G G66A C70G    Yes
G29U G37A G38C G60U    No
G41C U49A    No
C67A C70U    Yes
G41U U65A    Yes
A14C U31G A39G G66U    Yes
C50G G60C C70A    No
A53G G66A    Yes
G9U C68U C70U    No
A14G U45G A53U    Yes
C58A C70U    No
A12G A15G G44A U54A C61U    No
U46G C67G    Yes
C34G U56G C70U    No
A15C C68G    No
C8A G41C C58U    No
U30C C58G C68A    No
C68U U69G    No
U45C A53U    Yes
